What Drug uptake was measured for each of the following?
Assay: Drug uptake in human VCaP cells xenografted in SCID mouse tumor tissue at 20 mg/kg, po single dose measured after 24 hrs by LC-MS/MS analysis
Format: ADME, organism-based, Neoplasm
Conditions: in vivo
Numeric only. Scale: ng/g

// recorded Drug uptake for CC1(C)[C@H](NC(=O)c2ccc(N3CCN(CC4CN(c5ccc6c(c5)C(=O)N(C5CCC(=O)NC5=O)C6=O)C4)CC3)cc2)C(C)(C)[C@H]1Oc1ccc(C#N)c(Cl)c1 (stereo partly drawn) : 1740

response.value for CC1(C)[C@H](NC(=O)c2ccc(N3CCN(CC4CCN(c5ccc6c(c5)C(=O)N(C5CCC(=O)NC5=O)C6=O)CC4)CC3)cc2)C(C)(C)[C@H]1Oc1ccc(C#N)c(Cl)c1 (stereo partly drawn) (field: Drug uptake) = 1510

According to the records, this compound CC1(C)[C@H](NC(=O)c2ccc(N3CCN(C4CCN(c5ccc6c(c5)C(=O)N(C5CCC(=O)NC5=O)C6=O)CC4)CC3)cc2)C(C)(C)[C@H]1Oc1ccc(C#N)c(Cl)c1 (stereo partly drawn) displays Drug uptake of 685

====

Biological target: Protein cereblon/Androgen receptor (Homo sapiens, UniProt P10275+Q96SW2)
Sequence (P10275 whole entry, looked up): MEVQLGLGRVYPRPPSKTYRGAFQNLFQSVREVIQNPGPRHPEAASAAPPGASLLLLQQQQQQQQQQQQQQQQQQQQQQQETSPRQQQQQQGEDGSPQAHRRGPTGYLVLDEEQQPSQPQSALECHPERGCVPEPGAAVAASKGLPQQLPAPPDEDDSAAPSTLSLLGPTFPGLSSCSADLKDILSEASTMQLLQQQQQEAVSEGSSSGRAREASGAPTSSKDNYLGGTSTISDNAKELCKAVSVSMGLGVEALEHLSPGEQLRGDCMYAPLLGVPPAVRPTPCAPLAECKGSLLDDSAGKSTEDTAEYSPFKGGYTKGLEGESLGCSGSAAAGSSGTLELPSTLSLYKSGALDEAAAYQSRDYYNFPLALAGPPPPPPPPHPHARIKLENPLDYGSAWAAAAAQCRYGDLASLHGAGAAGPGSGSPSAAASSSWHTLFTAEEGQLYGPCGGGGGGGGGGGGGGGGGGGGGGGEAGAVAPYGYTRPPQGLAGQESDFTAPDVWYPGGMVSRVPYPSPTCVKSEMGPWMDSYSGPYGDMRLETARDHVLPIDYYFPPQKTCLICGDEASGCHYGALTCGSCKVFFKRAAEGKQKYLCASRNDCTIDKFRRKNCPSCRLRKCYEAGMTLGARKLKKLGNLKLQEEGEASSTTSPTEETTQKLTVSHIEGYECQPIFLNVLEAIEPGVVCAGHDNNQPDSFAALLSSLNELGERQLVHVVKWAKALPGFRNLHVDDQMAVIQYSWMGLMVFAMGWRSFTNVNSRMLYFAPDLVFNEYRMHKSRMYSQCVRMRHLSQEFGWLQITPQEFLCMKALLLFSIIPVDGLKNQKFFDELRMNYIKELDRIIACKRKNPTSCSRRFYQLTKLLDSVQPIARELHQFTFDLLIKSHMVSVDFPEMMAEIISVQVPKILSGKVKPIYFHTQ
Sequence (Q96SW2 whole entry, looked up): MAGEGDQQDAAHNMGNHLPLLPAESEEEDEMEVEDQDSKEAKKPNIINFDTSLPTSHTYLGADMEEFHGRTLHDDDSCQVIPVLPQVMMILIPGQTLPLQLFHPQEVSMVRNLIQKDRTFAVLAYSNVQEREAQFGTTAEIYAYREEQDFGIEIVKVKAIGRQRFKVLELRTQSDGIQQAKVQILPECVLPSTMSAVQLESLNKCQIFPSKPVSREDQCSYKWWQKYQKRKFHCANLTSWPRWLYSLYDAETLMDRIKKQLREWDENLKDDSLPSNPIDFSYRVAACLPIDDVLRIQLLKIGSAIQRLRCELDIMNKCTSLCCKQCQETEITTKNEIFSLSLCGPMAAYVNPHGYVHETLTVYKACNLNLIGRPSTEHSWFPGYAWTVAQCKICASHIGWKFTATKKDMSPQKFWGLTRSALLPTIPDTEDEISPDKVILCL
Assay: Protac activity at CRBN/AR in human VCaP cells assessed as induction of AR degradation at 0.01 uM measured after 24 hrs by western blot analysis relative to control
Assay type: cell-based
Values of Activity strictly less than 30% map to Met, and values of at least 30% map to Not met.

Activity under 30%? Item: CC1(C)[C@H](NC(=O)c2ccc(N3CCN(C4CCC5(CC4)CCN(c4ccc6c(c4)C(=O)N(C4CCC(=O)NC4=O)C6=O)CC5)CC3)cc2)C(C)(C)[C@H]1Oc1ccc(C#N)c(Cl)c1 (stereo not given in full) Not met

Lab log: compare recorded Activity with 30%; is it strictly lower for CC1(C)[C@H](NC(=O)c2ccc(N3CCN(CC4CCN(c5ccc6c(c5)C(=O)N(C5CCC(=O)NC5=O)C6=O)CC4)CC3)cc2)C(C)(C)[C@H]1Oc1cnc(C#N)c(C(F)(F)F)c1 (stereo not given in full) ? Met

Given CC1(C)[C@H](NC(=O)c2ccc(C(=O)N3CCN(C4CN(c5ccc6c(c5)C(=O)N(C5CCC(=O)NC5=O)C6=O)C4)CC3)cc2)C(C)(C)[C@H]1Oc1ccc(C#N)c(Cl)c1 (stereo not given in full) , is recorded Activity strictly lower than 30%? Not met

Say whether its Activity is strictly beneath 30%. Entry: CC1(C)[C@H](NC(=O)c2ccc(N3CCC4(CC3)CC(Nc3ccc5c(c3)C(=O)N(C3CCC(=O)NC3=O)C5=O)C4)cc2)C(C)(C)[C@H]1Oc1ccc(C#N)c(Cl)c1 (stereo not given in full) Met

====

Exercise: for every item that follows, state its recorded Activity.
Target: Protein cereblon/Androgen receptor (Homo sapiens, UniProt P10275+Q96SW2)
Assay: Protac activity at CRBN/AR in human VCaP cells assessed as induction of AR degradation at 0.01 uM measured after 24 hrs by western blot analysis relative to control
Type: cell-based

The compound CC1(C)[C@H](NC(=O)c2ccc(N3CCN(CCCCCNc4ccc5c(c4)C(=O)N(C4CCC(=O)NC4=O)C5=O)CC3)cc2)C(C)(C)[C@H]1Oc1ccc(C#N)c(Cl)c1 (some centres undefined) showed Activity equal to 59%

// recorded Activity for CC1(C)[C@H](NC(=O)c2ccc(N3CCN(CC4CCN(c5ccc6c(c5)C(=O)N(C5CCC(=O)NC5=O)C6=O)CC4)CC3)cc2)C(C)(C)[C@H]1Oc1ccc(C#N)c(C(F)(F)F)c1 (some centres undefined) : 45%

Lab note: measured Activity of CC1(C)[C@H](NC(=O)c2ccc(N3CCN(CCCNc4cccc5c4C(=O)N(C4CCC(=O)NC4=O)C5=O)CC3)cc2)C(C)(C)[C@H]1Oc1ccc(C#N)c(Cl)c1 (some centres undefined) was < 5%

For this compound ( CC1(C)[C@H](NC(=O)c2ccc(N3CCN(C4CC5(C4)CN(c4ccc6c(c4)C(=O)N(C4CCC(=O)NC4=O)C6=O)C5)CC3)cc2)C(C)(C)[C@H]1Oc1ccc(C#N)c(Cl)c1 (some centres undefined) ), measured Activity is 78%

====

Hi there, I'd appreciate the recorded Activity for every entry that follows.
Target: Protein cereblon/Androgen receptor (Homo sapiens, UniProt P10275+Q96SW2)
Test: Protac activity at CRBN/AR in human VCaP cells assessed as induction of AR degradation at 0.1 uM measured after 24 hrs by western blot analysis relative to control
Assay type: cell-based
Give just the number in %; leave the unit off.

According to the records, this compound CC1(C)[C@H](NC(=O)c2ccc(N3CCN(C4CCC5(CC4)CN(c4ccc6c(c4)C(=O)N(C4CCC(=O)NC4=O)C6=O)C5)CC3)cc2)C(C)(C)[C@H]1Oc1ccc(C#N)c(Cl)c1 (some centres not stated) displays Activity of 73

Activity in this record for CC1(C)[C@H](NC(=O)c2ccc(NCCCCCCNc3ccc4c(c3)C(=O)N(C3CCC(=O)NC3=O)C4=O)cc2)C(C)(C)[C@H]1Oc1ccc(C#N)c(Cl)c1 (some centres not stated) : 77

Record N#Cc1ccc(O[C@H]2C[C@H](NC(=O)c3ccc(N4CCN(CC5CCN(c6ccc7c(c6)C(=O)N(C6CCC(=O)NC6=O)C7=O)CC5)CC4)cc3)C2)cc1Cl (some centres not stated) , field Activity: 25

Kindly note the recorded Activity for CC1(C)[C@H](NC(=O)c2ccc(NCCCCCCNc3cccc4c3C(=O)N(C3CCC(=O)NC3=O)C4=O)cc2)C(C)(C)[C@H]1Oc1ccc(C#N)c(Cl)c1 (some centres not stated) , which is 43

Record summary for CC1(C)[C@H](NC(=O)c2ccc(N3CCN(C4CC5(C4)CN(c4ccc6c(c4)C(=O)N(C4CCC(=O)NC4=O)C6=O)C5)CC3)cc2)C(C)(C)[C@H]1Oc1ccc(C#N)c(Cl)c1 (some centres not stated) : reported Activity = 93

Activity measured on CC1(C)[C@H](NC(=O)c2ccc(N3CCC4(CC3)CC(Nc3ccc5c(c3)C(=O)N(C3CCC(=O)NC3=O)C5=O)C4)cc2)C(C)(C)[C@H]1Oc1ccc(C#N)c(Cl)c1 (some centres not stated) = 82

The reported Activity of the compound CC1(C)[C@H](NC(=O)c2ccc(N3CCC4(CCC(Nc5ccc6c(c5)C(=O)N(C5CCC(=O)NC5=O)C6=O)CC4)CC3)cc2)C(C)(C)[C@H]1Oc1ccc(C#N)c(Cl)c1 (some centres not stated) was 38

Query CC1(C)[C@H](NC(=O)c2ccc(N3CCN(CC4CC5(C4)CN(c4ccc6c(c4)C(=O)N(C4CCC(=O)NC4=O)C6=O)C5)CC3)cc2)C(C)(C)[C@H]1Oc1ccc(C#N)c(Cl)c1 (some centres not stated) yields Activity of 97

Reported Activity for CC1(C)[C@H](NC(=O)c2ccc(C(=O)N3CCN(CC4CN(c5ccc6c(c5)C(=O)N(C5CCC(=O)NC5=O)C6=O)C4)CC3)cc2)C(C)(C)[C@H]1Oc1ccc(C#N)c(Cl)c1 (some centres not stated) was 96

For this compound ( CC1(C)[C@H](NC(=O)c2ccc(N3CCN(CC4CC5(CCN(c6ccc7c(c6)C(=O)N(C6CCC(=O)NC6=O)C7=O)C5)C4)CC3)cc2)C(C)(C)[C@H]1Oc1ccc(C#N)c(Cl)c1 (some centres not stated) ), measured Activity is 71

Entry CC1(C)[C@H](NC(=O)c2ccc(NCCCCCNc3cccc4c3C(=O)N(C3CCC(=O)NC3=O)C4=O)cc2)C(C)(C)[C@H]1Oc1ccc(C#N)c(Cl)c1 (some centres not stated) — recorded Activity = 36

Quick note, Activity for CC1(C)[C@H](NC(=O)c2ccc(N3CCN(CC4CCN(c5ccc6c(c5)C(=O)N(C5CCC(=O)NC5=O)C6=O)CC4)CC3)cc2)C(C)(C)[C@H]1Oc1ccc(C#N)c(F)c1 (some centres not stated) landed at 75

So for CC1(C)[C@H](NC(=O)c2ccc(N3CCN(CC4CCN(c5ccc6c(c5)C(=O)N(C5CCC(=O)NC5=O)C6=O)CC4)CC3)cc2)C(C)(C)[C@H]1Oc1ccc(C#N)c(C(F)(F)F)c1 (some centres not stated) , the logged Activity turned out to be 87

Lookup result for CC1(C)[C@H](NC(=O)c2ccc(NCCCCCNc3ccc4c(c3)C(=O)N(C3CCC(=O)NC3=O)C4=O)cc2)C(C)(C)[C@H]1Oc1ccc(C#N)c(Cl)c1 (some centres not stated) ; measured Activity: 89

// Activity lookup, compound = CC1(C)[C@@H](NC(=O)c2ccc(N3CCN(CC4CCN(c5ccc6c(c5)C(=O)N(C5CCC(=O)NC5=O)C6=O)CC4)CC3)cc2)C[C@@H]1Oc1ccc(C#N)c(Cl)c1 (some centres not stated) , result: 75

The recorded Activity for CC1(C)[C@H](NC(=O)c2ccc(N3CCN(C4CCC5(CC4)CCN(c4ccc6c(c4)C(=O)N(C4CCC(=O)NC4=O)C6=O)CC5)CC3)cc2)C(C)(C)[C@H]1Oc1ccc(C#N)c(Cl)c1 (some centres not stated) is 67

GET /value?item= CC1(C)[C@H](NC(=O)c2ccc(NCCCCNc3ccc4c(c3)C(=O)N(C3CCC(=O)NC3=O)C4=O)cc2)C(C)(C)[C@H]1Oc1ccc(C#N)c(Cl)c1 (some centres not stated) &field=Activity returns 55

Documented Activity of CC1(C)[C@H](NC(=O)c2ccc(N3CCN(CC4CCN(c5ccc6c(c5)C(=O)N(C5CCC(=O)NC5=O)C6=O)CC4)CC3)cc2)C(C)(C)[C@H]1Oc1cnc(C#N)c(C(F)(F)F)c1 (some centres not stated) : 33

So, CC1(C)[C@H](NC(=O)c2ccc(N3CCN(CCNc4ccc5c(c4)C(=O)N(C4CCC(=O)NC4=O)C5=O)CC3)cc2)C(C)(C)[C@H]1Oc1ccc(C#N)c(Cl)c1 (some centres not stated) ? Its Activity was 79

The recorded Activity for entry CC1(C)[C@H](NC(=O)c2ccc(N3CCN(CCNc4cccc5c4C(=O)N(C4CCC(=O)NC4=O)C5=O)CC3)cc2)C(C)(C)[C@H]1Oc1ccc(C#N)c(Cl)c1 (some centres not stated) equals 41

Noted for CC1(C)[C@H](NC(=O)c2ccc(N3CCN(CCCCNc4cccc5c4C(=O)N(C4CCC(=O)NC4=O)C5=O)CC3)cc2)C(C)(C)[C@H]1Oc1ccc(C#N)c(Cl)c1 (some centres not stated) : its Activity reads 47

Entry CC1(C)[C@H](NC(=O)c2ccc(NCCCCCCCNc3ccc4c(c3)C(=O)N(C3CCC(=O)NC3=O)C4=O)cc2)C(C)(C)[C@H]1Oc1ccc(C#N)c(Cl)c1 (some centres not stated) — recorded Activity = 79

// provenance: ChEMBL document CHEMBL4842367
